Assay: Acute toxicity by oral administration to rats
Conditions: rat, in vivo, po
assay_endpoint: LD50 (mg/kg)
Number only, in mg/kg; omit the unit.

// returns reported LD50 for input O=C(COC(=O)Cc1ccccc1Nc1c(Cl)cccc1Cl)OCc1ccccc1 95.3

Data origin, for the record: patent US4548952A
